Measurement Target: Ephrin type-B receptor 1 (Homo sapiens, UniProt P54762)
Experimental Readout: IC50 (nM)
The figure you give is taken to be in nM; do not add the unit.

Query :: Give the measured IC50 for CN1C(=O)[C@@H](N2CCc3c(nn(Cc4ccccc4)c3Br)C2=O)COc2ccccc21
Result :: 1000

====

Measurement Target: UniProtKB Q00535
Sequence (Q00535 whole entry): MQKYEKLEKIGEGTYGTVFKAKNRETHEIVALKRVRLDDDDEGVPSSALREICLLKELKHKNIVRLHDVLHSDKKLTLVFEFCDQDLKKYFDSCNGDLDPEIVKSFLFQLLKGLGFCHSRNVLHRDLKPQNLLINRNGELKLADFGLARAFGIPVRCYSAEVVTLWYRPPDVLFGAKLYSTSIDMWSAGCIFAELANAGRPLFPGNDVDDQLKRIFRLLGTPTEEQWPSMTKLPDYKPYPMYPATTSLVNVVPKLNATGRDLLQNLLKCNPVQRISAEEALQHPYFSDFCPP
Experimental Readout: IC50 (nM)
Give the value in nM but do not write nM after it.

Query :: Name the recorded IC50 of the compound listed here: CN1C(=O)[C@@H](N2CCc3c(nn(Cc4ccccc4)c3Br)C2=O)COc2ccccc21
Result :: 1000

====

Measurement Target: Sigma intracellular receptor 2 (Homo sapiens, UniProt Q5BJF2)
Sequence (Q5BJF2 whole entry): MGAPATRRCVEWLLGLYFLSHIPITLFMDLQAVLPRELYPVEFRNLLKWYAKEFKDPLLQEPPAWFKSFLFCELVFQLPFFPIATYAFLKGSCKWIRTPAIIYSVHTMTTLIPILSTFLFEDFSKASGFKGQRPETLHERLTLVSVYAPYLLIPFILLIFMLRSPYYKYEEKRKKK
Test Summary: GPCRScan assay: inhibition of Sigma 2
Design: radioligand conc. used [nm] 5.0, parental cells HEKT
Reported Conditions: read-out: Ki
Experimental Readout: pKi
Please note pKi is a logarithmic value: minus log10 of concentration in mol/L. Answer with that number alone.

Query :: Supply recorded pKi for CN1C(=O)[C@@H](N2CCc3c(nn(Cc4ccccc4)c3Br)C2=O)COc2ccccc21 here.
Result :: 5.46

====

Measurement Target: Mitogen-activated protein kinase kinase kinase 20 (Homo sapiens)
Sequence (Q9NYL2 whole entry): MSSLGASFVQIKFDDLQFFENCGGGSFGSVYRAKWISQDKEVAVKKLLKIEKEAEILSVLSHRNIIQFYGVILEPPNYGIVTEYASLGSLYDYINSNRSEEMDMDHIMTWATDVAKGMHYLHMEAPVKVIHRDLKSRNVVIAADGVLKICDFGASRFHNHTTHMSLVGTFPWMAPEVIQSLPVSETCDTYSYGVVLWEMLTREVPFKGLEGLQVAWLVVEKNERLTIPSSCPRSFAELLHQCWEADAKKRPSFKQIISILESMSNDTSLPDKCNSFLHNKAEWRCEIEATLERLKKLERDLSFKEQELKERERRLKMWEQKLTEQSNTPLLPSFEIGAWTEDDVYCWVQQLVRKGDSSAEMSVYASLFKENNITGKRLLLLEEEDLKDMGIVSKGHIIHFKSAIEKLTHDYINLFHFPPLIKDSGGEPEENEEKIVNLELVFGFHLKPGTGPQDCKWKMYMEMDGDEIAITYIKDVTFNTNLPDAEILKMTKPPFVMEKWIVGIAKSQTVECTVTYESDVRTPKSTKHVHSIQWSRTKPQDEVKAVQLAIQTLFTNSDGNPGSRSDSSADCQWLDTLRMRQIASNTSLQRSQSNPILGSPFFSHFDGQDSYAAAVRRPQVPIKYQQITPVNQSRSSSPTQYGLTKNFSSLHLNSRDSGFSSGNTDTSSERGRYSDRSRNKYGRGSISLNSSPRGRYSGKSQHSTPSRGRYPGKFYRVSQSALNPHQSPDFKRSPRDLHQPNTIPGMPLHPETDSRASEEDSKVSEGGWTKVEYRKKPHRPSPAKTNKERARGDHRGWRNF
Test Summary: ZAK(ZAK1LGY1) Takeda global kinase panel
Experimental Readout: IC50 (nM)
Express it in nM; write the number only.

Query :: Send back Mitogen-activated protein kinase kinase kinase 20 (Homo sapiens) IC50 of CN1C(=O)[C@@H](N2CCc3c(nn(Cc4ccccc4)c3Br)C2=O)COc2ccccc21 only.
Result :: 1000

====

Measurement Target: Mast/stem cell growth factor receptor Kit (Homo sapiens, UniProt P10721)
Sequence (P10721 whole entry): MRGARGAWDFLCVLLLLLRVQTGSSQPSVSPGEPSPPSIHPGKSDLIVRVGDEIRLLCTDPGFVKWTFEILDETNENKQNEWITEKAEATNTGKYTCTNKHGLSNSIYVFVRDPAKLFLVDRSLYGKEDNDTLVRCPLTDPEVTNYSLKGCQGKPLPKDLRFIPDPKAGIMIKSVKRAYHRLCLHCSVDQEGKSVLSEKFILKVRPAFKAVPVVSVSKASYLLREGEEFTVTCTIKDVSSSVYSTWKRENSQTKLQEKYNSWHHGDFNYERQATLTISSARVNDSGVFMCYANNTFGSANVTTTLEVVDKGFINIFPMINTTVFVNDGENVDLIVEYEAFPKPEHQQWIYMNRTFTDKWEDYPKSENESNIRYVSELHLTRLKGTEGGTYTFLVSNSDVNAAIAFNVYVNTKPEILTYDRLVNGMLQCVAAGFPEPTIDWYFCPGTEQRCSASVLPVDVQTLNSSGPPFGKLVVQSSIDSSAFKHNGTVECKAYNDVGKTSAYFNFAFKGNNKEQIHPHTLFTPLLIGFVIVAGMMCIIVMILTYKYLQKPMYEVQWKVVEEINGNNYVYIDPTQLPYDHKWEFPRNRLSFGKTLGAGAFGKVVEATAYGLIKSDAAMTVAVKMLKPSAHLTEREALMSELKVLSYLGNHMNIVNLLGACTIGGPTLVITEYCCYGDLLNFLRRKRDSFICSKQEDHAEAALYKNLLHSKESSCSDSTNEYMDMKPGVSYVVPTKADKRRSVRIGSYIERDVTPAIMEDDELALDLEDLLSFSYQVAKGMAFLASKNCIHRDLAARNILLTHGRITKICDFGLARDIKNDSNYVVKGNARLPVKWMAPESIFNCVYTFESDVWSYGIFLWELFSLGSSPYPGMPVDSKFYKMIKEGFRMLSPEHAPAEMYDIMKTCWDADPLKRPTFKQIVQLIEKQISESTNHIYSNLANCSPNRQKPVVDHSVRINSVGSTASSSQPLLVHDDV
Experimental Readout: pIC50
Interpret pIC50 as the negative base-10 log of the concentration measured in mol/L.

Query :: Hello, please tell me recorded pIC50 for this one: CN1C(=O)[C@@H](N2CCc3c(nn(Cc4ccccc4)c3Br)C2=O)COc2ccccc21
Result :: 6.00

====

Measurement Target: Casein kinase I isoform gamma-3 (Homo sapiens, UniProt Q9Y6M4)
Sequence (Q9Y6M4 whole entry, canonical isoform): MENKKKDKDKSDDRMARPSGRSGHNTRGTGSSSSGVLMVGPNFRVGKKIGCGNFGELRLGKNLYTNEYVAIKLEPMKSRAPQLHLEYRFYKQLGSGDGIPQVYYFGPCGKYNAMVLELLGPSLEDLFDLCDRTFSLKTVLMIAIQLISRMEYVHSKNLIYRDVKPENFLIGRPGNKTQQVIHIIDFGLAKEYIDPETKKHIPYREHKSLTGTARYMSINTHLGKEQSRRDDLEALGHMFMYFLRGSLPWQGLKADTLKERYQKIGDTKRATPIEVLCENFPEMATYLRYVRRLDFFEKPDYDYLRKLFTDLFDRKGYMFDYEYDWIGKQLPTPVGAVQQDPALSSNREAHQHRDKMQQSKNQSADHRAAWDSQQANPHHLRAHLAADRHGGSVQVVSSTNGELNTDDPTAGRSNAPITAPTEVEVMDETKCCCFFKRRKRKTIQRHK
Test Summary: CK1gamma3(C1G3LGI5) Takeda global kinase panel
Experimental Readout: IC50 (µM)
Quick note: give the figure in µM, leave out the unit.

Query :: Specify IC50 for CN1C(=O)[C@@H](N2CCc3c(nn(Cc4ccccc4)c3Br)C2=O)COc2ccccc21 and stop.
Result :: 1

====

Measurement Target: NUAK family SNF1-like kinase 1 (Homo sapiens)
Experimental Readout: IC50 (nM)
Unit nM implied. Number only.

Query :: Would you please give the reported IC50 of CN1C(=O)[C@@H](N2CCc3c(nn(Cc4ccccc4)c3Br)C2=O)COc2ccccc21 with NUAK family SNF1-like kinase 1 (Homo sapiens)?
Result :: 1000

====

Measurement Target: UniProtKB Q9P2K8
Sequence (Q9P2K8 whole entry): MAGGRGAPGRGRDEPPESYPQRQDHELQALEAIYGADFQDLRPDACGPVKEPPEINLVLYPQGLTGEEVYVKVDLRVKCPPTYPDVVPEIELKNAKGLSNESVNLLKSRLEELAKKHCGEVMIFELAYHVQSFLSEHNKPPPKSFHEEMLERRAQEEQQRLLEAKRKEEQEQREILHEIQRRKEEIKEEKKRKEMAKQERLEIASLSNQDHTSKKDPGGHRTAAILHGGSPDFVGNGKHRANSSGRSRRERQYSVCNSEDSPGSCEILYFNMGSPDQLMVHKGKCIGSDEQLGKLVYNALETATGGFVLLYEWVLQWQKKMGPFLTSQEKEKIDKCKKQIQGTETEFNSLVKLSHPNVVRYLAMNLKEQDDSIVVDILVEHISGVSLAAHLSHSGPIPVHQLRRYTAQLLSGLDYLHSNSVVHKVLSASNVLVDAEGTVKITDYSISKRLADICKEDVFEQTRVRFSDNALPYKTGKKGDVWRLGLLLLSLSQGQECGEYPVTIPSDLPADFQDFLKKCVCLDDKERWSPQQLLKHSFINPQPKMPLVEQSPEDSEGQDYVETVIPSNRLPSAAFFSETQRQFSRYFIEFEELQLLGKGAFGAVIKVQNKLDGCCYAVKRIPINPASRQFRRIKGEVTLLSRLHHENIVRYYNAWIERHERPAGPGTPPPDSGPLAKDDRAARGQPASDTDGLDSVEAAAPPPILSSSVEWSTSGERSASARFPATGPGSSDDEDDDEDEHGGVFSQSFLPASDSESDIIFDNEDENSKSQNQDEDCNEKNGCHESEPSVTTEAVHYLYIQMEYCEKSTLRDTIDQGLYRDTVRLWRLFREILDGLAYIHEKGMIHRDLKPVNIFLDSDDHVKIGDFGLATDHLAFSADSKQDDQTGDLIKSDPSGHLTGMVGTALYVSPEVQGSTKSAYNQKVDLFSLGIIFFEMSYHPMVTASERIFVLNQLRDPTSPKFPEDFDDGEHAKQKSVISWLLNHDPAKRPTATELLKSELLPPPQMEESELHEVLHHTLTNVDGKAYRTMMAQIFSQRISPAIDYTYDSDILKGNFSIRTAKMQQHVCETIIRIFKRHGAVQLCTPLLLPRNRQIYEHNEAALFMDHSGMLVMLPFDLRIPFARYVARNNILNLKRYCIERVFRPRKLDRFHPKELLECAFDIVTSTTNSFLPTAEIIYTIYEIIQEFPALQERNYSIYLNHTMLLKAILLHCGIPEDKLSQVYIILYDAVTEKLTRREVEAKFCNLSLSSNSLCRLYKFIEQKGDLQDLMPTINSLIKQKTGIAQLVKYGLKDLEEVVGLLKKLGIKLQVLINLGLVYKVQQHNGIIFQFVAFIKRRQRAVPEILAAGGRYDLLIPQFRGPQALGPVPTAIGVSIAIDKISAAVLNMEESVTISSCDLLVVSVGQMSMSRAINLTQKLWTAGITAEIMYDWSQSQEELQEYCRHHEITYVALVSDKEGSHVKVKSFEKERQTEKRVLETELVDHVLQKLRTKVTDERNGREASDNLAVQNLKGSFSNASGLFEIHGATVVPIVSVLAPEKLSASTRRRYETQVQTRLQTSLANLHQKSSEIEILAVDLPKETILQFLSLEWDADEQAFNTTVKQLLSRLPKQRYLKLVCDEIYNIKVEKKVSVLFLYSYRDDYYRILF
Experimental Readout: pIC50
# reply with the number alone; pIC50 is -log10 of concentration in mol/L

Query :: Would you please give the reported pIC50 of CN1C(=O)[C@@H](N2CCc3c(nn(Cc4ccccc4)c3Br)C2=O)COc2ccccc21 with UniProtKB Q9P2K8?
Result :: 6.00

====

Measurement Target: Serine/threonine-protein kinase Sgk2 (Homo sapiens, UniProt Q9HBY8)
Sequence (Q9HBY8 whole entry): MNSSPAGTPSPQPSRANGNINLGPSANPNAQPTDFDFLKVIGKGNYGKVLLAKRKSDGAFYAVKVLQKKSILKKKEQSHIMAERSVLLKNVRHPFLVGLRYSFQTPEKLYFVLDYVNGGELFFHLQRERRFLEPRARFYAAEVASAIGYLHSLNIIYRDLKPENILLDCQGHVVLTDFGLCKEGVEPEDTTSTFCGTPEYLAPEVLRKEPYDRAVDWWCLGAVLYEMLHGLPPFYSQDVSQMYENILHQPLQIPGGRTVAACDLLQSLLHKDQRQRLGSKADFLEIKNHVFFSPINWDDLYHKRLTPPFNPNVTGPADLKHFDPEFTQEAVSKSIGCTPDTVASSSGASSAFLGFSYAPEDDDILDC
Experimental Readout: IC50
In your response, the unit should come after the numeric value.

Query :: Look up Serine/threonine-protein kinase Sgk2 (Homo sapiens, UniProt Q9HBY8) data: IC50 of CN1C(=O)[C@@H](N2CCc3c(nn(Cc4ccccc4)c3Br)C2=O)COc2ccccc21 , then report it.
Result :: 1000 nM
